B1: NFE2L1 (parent)
chain: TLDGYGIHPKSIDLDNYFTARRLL

# Variants of: B1
# ASSAY_TEXT: protein stability index of a GFP-peptide fusion (GPS, HEK-293T) (PSI 1-6); higher = more stable;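 further: lentivirally expressed fusions sorted by FACS into six bins by GFP to DsRed ratio, PSI derived from sequencing read proportions per bin multiplied by bin number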
# COND: c terminus: a fixed tail appended
Give protein stability index for every item shown.

The following variants have reported results that may help.
R22G ... 2.53
T1D ... 1.92
G6T ... 1.83

Quick one: give me protein stability index for each item below, same order please.
1. S11N
2. N16M
3. T1K
4. F18W
5. P9H

result:
2.19
1.87
1.52
1.7
2.14

Consider the following items and state reported protein stability index for each.
1. L2I
2. Y5R
3. L24P

result:
2.61
1.76
2.56

Values compiled from the supplement of paper PMC10567573.
